System: Phoma foveata
run_description: Example 8 sensitivity testing of potato tuber pathogens to imazalil derivatives (EC50)
Format: cell-based
measurement_parameters: isolate Phoma foveata BL2/5 T3; Trial B; read-out: EC50 (concentration required to reduce mycelial growth by 50%)
pEC50: −log10 of the molar value.

{"molecule": "C=CCOC(Cn1ccnc1)c1ccc(Cl)cc1Cl (stereo not shown) [Imazalilium docusate, imazalilium docusate]", "pEC50": 5.34}

---

Test system: F. sambucinum
run_description: Example 8 sensitivity testing of potato tuber pathogens to imazalil derivatives (EC50)
Assay type: cell-based
measurement_parameters: isolate F. sambucinum ex SASA; log-probability plot; Trial B; read-out: EC50 (concentration required to reduce mycelial growth by 50%)
Method: For tests with imazalil sulphate and imazalilium docusate prepared according to Trial B, imazalil sulphate (0.5 g, drug pure, Janssen) was dissolved in sterile water (100 ml) to give a stock solution (12.7 mM). […] Dilutions (alternately five-fold and two-fold) of each of these stock solutions were prepared (in water for imazalil sulphate and in ethanol for imazalilium docusate) to produce a dilution series (12.7, 2.54, 1.27, 0.25, and 0.13 mM). […]
pEC50: −log10 of the molar value.

{"molecule": "C=CCOC(Cn1ccnc1)c1ccc(Cl)cc1Cl (stereo not shown) [Imazalilium docusate, imazalilium docusate]", "pEC50": 6.00}
